- Tested On: Stromal interaction molecule 1 & 2/Calcium release-activated calcium channel protein 1 (Mus musculus) (UniProt Q8BWG9+P70302+P83093)
- Protocol Description: Modulation of STIM1/STIM2/Orai1 in mouse BV2 cells assessed as induction of store-operated calcium entry by measuring residual activity at 10 uM preincubated for 30 mins followed by tBhQ-mediated Ca2+ depletion and Ca2+ re-addition to extracellular solution measured for 600 secs by Fluo-4 AM-based fluorometric assay relative to control
- Type: cell-based
Value Kind: Activity (%)

[
  {
    "Smiles Text": "CCOC(=O)c1cnn(-c2ccc(-c3cn(-c4ccccn4)nn3)cc2)c1C(F)(F)F",
    "Activity [%]": 77
  },
  {
    "Smiles Text": "CCOC(=O)c1cnn(-c2ccc(-n3cc(-c4cccc(C(=O)O)c4)nn3)cc2)c1C(F)(F)F",
    "Activity [%]": 54.7
  },
  {
    "Smiles Text": "CCOC(=O)c1cnn(-c2ccc(-n3cc(-c4ccc(O)c(OC)c4)nn3)cc2)c1C(F)(F)F",
    "Activity [%]": 65
  },
  {
    "Smiles Text": "COc1cccc(-c2cn(-c3ccc(-n4nc(C(F)(F)F)cc4C(F)(F)F)cc3)nn2)c1",
    "Activity [%]": 105
  },
  {
    "Smiles Text": "COc1ccc(-c2cn(-c3ccc(-n4nc(C(F)(F)F)cc4C(F)(F)F)cc3)nn2)cc1",
    "Activity [%]": 99.6
  },
  {
    "Smiles Text": "CCOC(=O)c1cnn(-c2ccc(-n3cc(-c4ccc(Oc5ccccc5)cc4)nn3)cc2)c1C(F)(F)F",
    "Activity [%]": 83.8
  },
  {
    "Smiles Text": "COc1ccc(-n2cc(-c3ccc(-n4nc(C(F)(F)F)cc4C(F)(F)F)cc3)nn2)cc1",
    "Activity [%]": 78.7
  },
  {
    "Smiles Text": "CC(=O)Nc1ccccc1-c1cn(-c2ccc(-n3nc(C(F)(F)F)cc3C(F)(F)F)cc2)nn1",
    "Activity [%]": 93.2
  },
  {
    "Smiles Text": "FC(F)(F)c1cc(C(F)(F)F)n(-c2ccc(-c3cn(-c4cccnc4)nn3)cc2)n1",
    "Activity [%]": 77
  },
  {
    "Smiles Text": "CCOC(=O)c1cnn(-c2ccc(-n3cc(-c4cc(OC)cc(OC)c4)nn3)cc2)c1C(F)(F)F",
    "Activity [%]": 99.4
  }
]

1 = CC(=O)Nc1cccc(-c2cn(-c3ccc(-n4nc(C(F)(F)F)cc4C(F)(F)F)cc3)nn2)c1
2 = CCOC(=O)c1cnn(-c2ccc(-c3cn(-c4cccc(N)c4)nn3)cc2)c1C(F)(F)F
Of 1 and 2 , which shows the smaller Activity value? API: response body contains the label of the selected item.
2
(2: 61.3%, 1: 98.1%)

----------
- Tested On: Transient receptor potential cation channel subfamily M member 8 (Homo sapiens) (UniProt Q7Z2W7)
- Sequence (Q7Z2W7 whole entry, looked up): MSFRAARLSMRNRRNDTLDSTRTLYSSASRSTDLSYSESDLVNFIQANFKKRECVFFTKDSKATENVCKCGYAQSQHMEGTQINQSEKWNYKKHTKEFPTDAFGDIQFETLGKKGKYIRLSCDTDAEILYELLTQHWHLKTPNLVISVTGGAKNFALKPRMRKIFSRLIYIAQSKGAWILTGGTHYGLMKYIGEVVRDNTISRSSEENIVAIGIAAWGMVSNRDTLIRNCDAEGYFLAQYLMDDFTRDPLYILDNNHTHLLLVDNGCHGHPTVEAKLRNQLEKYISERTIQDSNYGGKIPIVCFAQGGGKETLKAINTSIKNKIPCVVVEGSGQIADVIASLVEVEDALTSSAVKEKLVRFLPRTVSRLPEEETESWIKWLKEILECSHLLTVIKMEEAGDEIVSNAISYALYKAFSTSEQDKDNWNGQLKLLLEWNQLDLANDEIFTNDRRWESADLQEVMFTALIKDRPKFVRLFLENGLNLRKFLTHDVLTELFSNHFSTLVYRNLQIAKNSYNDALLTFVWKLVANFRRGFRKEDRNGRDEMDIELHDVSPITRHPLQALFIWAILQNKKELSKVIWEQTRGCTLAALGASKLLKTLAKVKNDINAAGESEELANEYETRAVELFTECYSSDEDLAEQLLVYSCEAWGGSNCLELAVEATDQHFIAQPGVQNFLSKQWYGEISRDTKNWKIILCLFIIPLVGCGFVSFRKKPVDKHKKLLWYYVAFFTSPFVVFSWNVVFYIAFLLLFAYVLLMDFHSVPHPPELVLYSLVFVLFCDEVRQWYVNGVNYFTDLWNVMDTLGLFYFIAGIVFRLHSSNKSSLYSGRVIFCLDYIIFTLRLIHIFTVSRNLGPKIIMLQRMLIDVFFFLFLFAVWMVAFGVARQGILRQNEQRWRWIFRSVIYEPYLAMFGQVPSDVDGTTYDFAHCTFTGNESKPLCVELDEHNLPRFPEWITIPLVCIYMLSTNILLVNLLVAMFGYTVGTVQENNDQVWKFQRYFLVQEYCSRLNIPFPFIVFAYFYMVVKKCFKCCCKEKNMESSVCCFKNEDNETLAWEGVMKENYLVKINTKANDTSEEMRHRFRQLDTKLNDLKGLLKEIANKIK
- Protocol Description: Antagonist activity at TRPM8 (unknown origin) expressed in HEK cells assessed as inhibition of menthol -mediated calcium increase at 10 uM by fura-2-based assay
- Type: cell-based
Activity calls are given as the source filed them. The calls are words filed in the database; no cut-off is given here.
Hi there, use one of these labels in your reply, thanks! active, inactive

Some entries whose results are on file:
[
  {
    "Compound": "CCCC(C)OC(=O)c1cnn(-c2ccc(-n3cc(-c4cccc(C(=O)O)c4)nn3)cc2)c1C(F)(F)F (configuration not stated)",
    "Category Label": "inactive"
  },
  {
    "Compound": "CCOC(=O)c1cnn(-c2ccc(-n3cc(-c4cccc(C(=O)O)c4)nn3)cc2)c1C(F)(F)F",
    "Category Label": "inactive"
  },
  {
    "Compound": "O=C(O)c1ccc(-c2cn(-c3ccc(-n4nc(C(F)(F)F)cc4C(F)(F)F)cc3)nn2)cc1",
    "Category Label": "inactive"
  },
  {
    "Compound": "CCOC(=O)c1cnn(-c2ccc(NC(=O)C(Cl)=C(Cl)Cl)cc2)c1C(F)(F)F",
    "Category Label": "inactive"
  },
  {
    "Compound": "CC(C)OC(=O)c1cnn(-c2ccc(-n3cc(-c4cccc(C(=O)O)c4)nn3)cc2)c1C(F)(F)F",
    "Category Label": "inactive"
  }
]

Record lookup: outcome of this test for O=C(Nc1ccc(-n2nc(C(F)(F)F)cc2C(F)(F)F)cc1)c1ccncc1F ?
active

Record lookup: outcome of this test for CCOC(=O)c1cnn(-c2ccc(-c3cn(-c4ccc(Cl)cc4)nn3)cc2)c1C(F)(F)F ?
inactive

----------
- Tested On: Stromal interaction molecule 1 & 2/Calcium release-activated calcium channel protein 1 (Mus musculus) (UniProt Q8BWG9+P70302+P83093)
- Protocol Description: Modulation of STIM1/STIM2/Orai1 in mouse BV2 cells assessed as induction of store-operated calcium entry by measuring residual activity at 10 uM preincubated for 30 mins followed by tBhQ-mediated Ca2+ depletion and Ca2+ re-addition to extracellular solution measured for 600 secs by Fluo-4 AM-based fluorometric assay relative to control
- Assay type: cell-based
Value Kind: Activity (%)

[
  {
    "Smiles Text": "CCOC(=O)c1cnn(-c2ccc(-n3cc(-c4ccncc4F)nn3)cc2)c1C(F)(F)F",
    "Activity, %": 107
  },
  {
    "Smiles Text": "FC(F)(F)c1cc(C(F)(F)F)n(-c2ccc(-c3cn(-c4ccc(Oc5ccccc5)cc4)nn3)cc2)n1",
    "Activity, %": 90.2
  },
  {
    "Smiles Text": "CCOC(=O)c1cnn(-c2ccc(-c3cn(-c4ccncc4)nn3)cc2)c1C(F)(F)F",
    "Activity, %": 79.8
  },
  {
    "Smiles Text": "O=C(O)CCCn1cc(-c2ccc(-n3nc(C(F)(F)F)cc3C(F)(F)F)cc2)nn1",
    "Activity, %": 81.7
  },
  {
    "Smiles Text": "FC(F)(F)c1cc(C(F)(F)F)n(-c2ccc(-n3cc(-c4ccc(Cl)cc4)nn3)cc2)n1",
    "Activity, %": 106
  },
  {
    "Smiles Text": "COc1cc(-c2cn(-c3ccc(-n4nc(C(F)(F)F)cc4C(F)(F)F)cc3)nn2)ccc1O",
    "Activity, %": 80.5
  },
  {
    "Smiles Text": "FC(F)(F)c1cc(C(F)(F)F)n(-c2ccc(-c3cn(-c4ccncc4)nn3)cc2)n1",
    "Activity, %": 84
  }
]

----------
- Tested On: Stromal interaction molecule 1 & 2/Calcium release-activated calcium channel protein 1 (Mus musculus) (UniProt Q8BWG9+P70302+P83093)
- Protocol Description: Modulation of STIM1/STIM2/Orai1 in mouse BV2 cells assessed as induction of store-operated calcium entry by measuring residual activity at 10 uM preincubated for 30 mins followed by tBhQ-mediated Ca2+ depletion and Ca2+ re-addition to extracellular solution measured for 600 secs by Fluo-4 AM-based fluorometric assay relative to control
- Assay type: cell-based
Value Kind: Activity (%)

[
  {
    "Smiles Text": "CCOC(=O)c1cnn(-c2ccc(-n3cc(-c4ccc(N)cc4)nn3)cc2)c1C(F)(F)F",
    "Activity (%)": 91.7
  },
  {
    "Smiles Text": "Fc1cnccc1-c1cn(-c2ccc(-n3nc(C(F)(F)F)cc3C(F)(F)F)cc2)nn1",
    "Activity (%)": 90.2
  },
  {
    "Smiles Text": "FC(F)(F)c1cc(C(F)(F)F)n(-c2ccc(-n3cc(-c4cccnc4)nn3)cc2)n1",
    "Activity (%)": 87.8
  }
]

----------
- Tested On: Short transient receptor potential channel 1 & 3/Stromal interaction molecule 1/Calcium release-activated calcium channel protein 1 (Homo sapiens) (UniProt Q96D31+Q13507+Q13586+P48995)
- Sequence (P48995 whole entry partner): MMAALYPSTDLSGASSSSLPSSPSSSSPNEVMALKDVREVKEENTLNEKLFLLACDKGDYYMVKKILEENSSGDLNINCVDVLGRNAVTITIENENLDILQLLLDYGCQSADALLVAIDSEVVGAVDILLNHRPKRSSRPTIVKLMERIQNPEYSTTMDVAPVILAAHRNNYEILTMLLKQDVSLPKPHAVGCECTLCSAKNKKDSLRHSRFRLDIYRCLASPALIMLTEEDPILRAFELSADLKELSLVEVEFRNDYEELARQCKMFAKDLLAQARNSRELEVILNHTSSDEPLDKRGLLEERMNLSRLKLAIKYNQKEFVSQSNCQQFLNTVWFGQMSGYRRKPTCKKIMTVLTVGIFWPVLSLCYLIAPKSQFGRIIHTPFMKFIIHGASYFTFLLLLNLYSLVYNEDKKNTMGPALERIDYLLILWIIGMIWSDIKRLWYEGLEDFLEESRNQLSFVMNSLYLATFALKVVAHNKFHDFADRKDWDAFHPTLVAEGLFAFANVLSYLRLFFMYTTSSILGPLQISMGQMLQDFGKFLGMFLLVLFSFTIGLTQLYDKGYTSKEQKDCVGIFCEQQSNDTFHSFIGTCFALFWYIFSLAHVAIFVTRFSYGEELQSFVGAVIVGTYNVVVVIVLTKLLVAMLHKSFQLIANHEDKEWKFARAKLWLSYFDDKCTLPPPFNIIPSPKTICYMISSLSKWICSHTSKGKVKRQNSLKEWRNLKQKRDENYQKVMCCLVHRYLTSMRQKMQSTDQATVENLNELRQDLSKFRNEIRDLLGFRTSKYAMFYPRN
- Sequence (Q13507 whole entry partner): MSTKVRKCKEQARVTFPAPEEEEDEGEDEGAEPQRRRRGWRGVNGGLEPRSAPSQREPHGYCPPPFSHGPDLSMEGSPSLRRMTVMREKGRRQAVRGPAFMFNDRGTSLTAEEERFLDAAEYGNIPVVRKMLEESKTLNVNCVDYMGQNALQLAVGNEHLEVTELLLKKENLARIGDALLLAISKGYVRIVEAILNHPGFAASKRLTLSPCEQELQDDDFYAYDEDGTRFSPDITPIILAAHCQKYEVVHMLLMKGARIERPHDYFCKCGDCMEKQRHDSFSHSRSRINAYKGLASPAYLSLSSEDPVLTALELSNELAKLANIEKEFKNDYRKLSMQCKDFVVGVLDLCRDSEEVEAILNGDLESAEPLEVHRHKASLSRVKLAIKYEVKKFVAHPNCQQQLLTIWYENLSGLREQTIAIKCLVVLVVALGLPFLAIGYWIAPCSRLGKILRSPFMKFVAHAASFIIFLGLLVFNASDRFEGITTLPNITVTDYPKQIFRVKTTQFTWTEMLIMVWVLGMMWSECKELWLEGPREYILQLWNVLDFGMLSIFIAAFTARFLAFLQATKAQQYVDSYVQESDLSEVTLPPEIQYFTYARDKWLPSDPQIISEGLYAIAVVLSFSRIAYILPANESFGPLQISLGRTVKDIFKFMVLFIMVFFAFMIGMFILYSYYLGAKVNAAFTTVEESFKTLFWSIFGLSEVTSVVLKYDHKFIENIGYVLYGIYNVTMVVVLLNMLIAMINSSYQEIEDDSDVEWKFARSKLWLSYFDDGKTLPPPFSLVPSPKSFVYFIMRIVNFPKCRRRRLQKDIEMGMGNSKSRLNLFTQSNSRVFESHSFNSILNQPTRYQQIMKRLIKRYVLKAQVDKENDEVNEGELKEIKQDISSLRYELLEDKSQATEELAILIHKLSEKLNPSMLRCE
- Sequence (Q13586 23-685 partner limits assumed): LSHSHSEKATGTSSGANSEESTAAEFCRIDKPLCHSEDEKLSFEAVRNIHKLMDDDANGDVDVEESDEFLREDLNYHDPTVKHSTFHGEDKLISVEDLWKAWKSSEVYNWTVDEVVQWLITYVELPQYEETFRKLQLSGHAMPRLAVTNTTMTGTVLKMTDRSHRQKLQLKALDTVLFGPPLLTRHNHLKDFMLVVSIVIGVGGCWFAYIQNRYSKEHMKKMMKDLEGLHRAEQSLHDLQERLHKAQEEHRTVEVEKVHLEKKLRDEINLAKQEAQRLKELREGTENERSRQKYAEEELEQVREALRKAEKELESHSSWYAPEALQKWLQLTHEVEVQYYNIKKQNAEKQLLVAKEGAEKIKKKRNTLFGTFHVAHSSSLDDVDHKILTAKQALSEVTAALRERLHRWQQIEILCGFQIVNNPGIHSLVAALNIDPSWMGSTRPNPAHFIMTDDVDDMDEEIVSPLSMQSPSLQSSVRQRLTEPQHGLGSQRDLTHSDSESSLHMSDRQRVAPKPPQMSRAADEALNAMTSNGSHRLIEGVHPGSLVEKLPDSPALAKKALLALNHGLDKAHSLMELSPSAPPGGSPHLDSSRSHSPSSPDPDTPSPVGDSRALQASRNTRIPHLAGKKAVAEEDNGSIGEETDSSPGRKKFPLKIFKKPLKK
- Sequence (Q96D31 whole entry): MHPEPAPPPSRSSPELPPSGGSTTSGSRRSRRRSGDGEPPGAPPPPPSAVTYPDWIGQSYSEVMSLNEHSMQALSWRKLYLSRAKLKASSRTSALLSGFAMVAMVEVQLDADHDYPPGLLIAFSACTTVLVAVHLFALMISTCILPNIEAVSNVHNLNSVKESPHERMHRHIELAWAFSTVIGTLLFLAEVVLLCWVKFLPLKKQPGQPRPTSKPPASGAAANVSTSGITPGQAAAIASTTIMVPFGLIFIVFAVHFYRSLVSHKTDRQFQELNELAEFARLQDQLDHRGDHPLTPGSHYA
- Protocol Description: Modulation of TRPC1/TRPC3/STIM1/Orai1 in HEK cells assessed as induction of store-operated calcium entry by measuring residual activity at 10 uM preincubated for 30 mins followed by tBhQ-mediated Ca2+ depletion and Ca2+ re-addition to extracellular solution measured for 600 secs by Fluo-4 AM-based fluorometric assay relative to control
- Type: cell-based
molecules and their reported Activity

Solved entries (count: 2):
[
  {
    "Smiles Text": "O=C(O)c1cccc(-c2cn(-c3ccc(-n4ncc(CO)c4C(F)(F)F)cc3)nn2)c1",
    "Activity": "> 90%"
  },
  {
    "Smiles Text": "CCOC(=O)c1cnn(-c2ccc(-c3cn(-c4cccc(CO)c4)nn3)cc2)c1C(F)(F)F",
    "Activity": "> 90%"
  }
]

Supply Activity value. Item: CCOC(=O)c1cnn(-c2ccc(-n3nncc3-c3cccc(C(=O)O)c3)cc2)c1C(F)(F)F
> 90%

----------
- Tested On: Short transient receptor potential channel 1 & 3/Stromal interaction molecule 1/Calcium release-activated calcium channel protein 1 (Homo sapiens) (UniProt Q96D31+Q13507+Q13586+P48995)
- Protocol Description: Modulation of TRPC1/TRPC3/STIM1/Orai1 in HEK cells assessed as induction of store-operated calcium entry by measuring residual activity at 10 uM preincubated for 30 mins followed by tBhQ-mediated Ca2+ depletion and Ca2+ re-addition to extracellular solution measured for 600 secs by Fluo-4 AM-based fluorometric assay relative to control
- Format: cell-based
Value Kind: Activity (%)

[
  {
    "Smiles Text": "CCOC(=O)c1cnn(-c2ccc(-n3cc(-c4cccc(S(N)(=O)=O)c4)nn3)cc2)c1C(F)(F)F",
    "Value Kind": "Activity",
    "Units": "%",
    "Numeric Value": 83.6
  },
  {
    "Smiles Text": "O=C(O)c1cccc(-c2cn(-c3ccc(-n4nc(C(F)(F)F)cc4C(F)(F)F)cc3)nn2)c1",
    "Value Kind": "Activity",
    "Units": "%",
    "Numeric Value": 53
  }
]

I = CCOC(=O)c1cnn(-c2ccc(-c3cn(-c4ccncc4F)nn3)cc2)c1C(F)(F)F
II = CCOC(=O)c1cnn(-c2ccc(-n3cc(-c4ccc(O)c(OC)c4)nn3)cc2)c1C(F)(F)F
III = CCOC(=O)c1cnn(-c2ccc(-c3cn(-c4cccc(C(=O)O)c4)nn3)cc2)c1C(F)(F)F
Please produce an ascending ranking of these molecules based on Activity. Returns: the labels listed in the requested order.
III, II, I
(III: 30%, II: 43.2%, I: 81.4%)
